Cited source: patent US20230078764A1

- TEST_SYSTEM: human SCD5 (Homo sapiens)
- Construct: expressed in transfected cells; host or cells: yeast strain with OLE1 deleted, plasmid-borne human SCD5 (selected in SD-Ura)
- Sequence (Q86SK9 whole entry): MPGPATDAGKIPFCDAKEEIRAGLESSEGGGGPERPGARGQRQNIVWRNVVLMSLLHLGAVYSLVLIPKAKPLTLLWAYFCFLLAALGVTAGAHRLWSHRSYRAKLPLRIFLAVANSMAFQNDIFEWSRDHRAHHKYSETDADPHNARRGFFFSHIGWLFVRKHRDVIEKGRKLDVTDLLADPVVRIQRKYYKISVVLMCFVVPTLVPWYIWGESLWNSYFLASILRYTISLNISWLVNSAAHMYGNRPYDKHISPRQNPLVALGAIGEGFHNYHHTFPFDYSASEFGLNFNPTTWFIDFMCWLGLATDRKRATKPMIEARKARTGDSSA
- EXPERIMENT: Growth inhibition of yeast strain expressing human SCD5 as sole desaturase (OLE1 deleted), OD600 readout
- Type: cell-based
- EXPERIMENTAL_CONDITIONS: yeast strain expressing human SCD5 as sole desaturase; growth (OD600) after 40 h at 30° C.; read-out: SCD5 IC50
pIC50: −log10 of the molar value.
RESULT_TYPE: pIC50

The following compounds have reported results that may help.
Cn1nccc(C(=O)Nc2ccc(Cc3cc(F)cc(F)c3)cn2)c1=O :: 8.00
N#Cc1ccc(C(=O)Nc2ccc(Cc3cccc(Cl)c3)cn2)nc1 :: 7.30
Cc1cc(C(=O)Nc2ccc(Cc3cc(F)cc(C#N)c3)cn2)cnc1C#N :: 7.41
CN1N=C(C(=O)Nc2ccc(Oc3cccc(Cl)c3)cc2)CCC1=O :: 5.09
CN1N=C(C(=O)Nc2ncc(Cc3ccc(Cl)cc3)s2)CCC1=O :: 6.42

a. CN1N=C(C(=O)Nc2ccc(Cc3cccc(F)c3)cn2)CCC1=O
b. Cc1nccc(C(=O)Nc2ccc(Cc3cccc(Cl)c3)cn2)n1
c. Cn1cc(C(=O)Nc2ccc(Cc3cccc(F)c3F)cn2)ccc1=O
[Q] rank_up(items): orders items by reported pIC50 in ascending numerical order. Arrange the labels as the request states and list them.
[A] a, c, b

a. O=C(Nc1ccc(Cc2cccc(Cl)c2)cn1)c1nnc(C(F)(F)F)o1
b. Cc1ccc(C(=O)Nc2ccc(Cc3ccc(F)c(F)c3)cn2)nn1
c. Cn1nc(C(=O)Nc2ccc(Cc3ccc(F)c(Cl)c3)cn2)cc1O
d. CN1N=C(NC(=O)c2ccc(Cc3cccc(Cl)c3)nn2)CCC1=O
[Q] // sort entries: pIC50, high to low Arrange the labels as the request states and list them.
[A] b, c, a, d

a. CC(O)c1ccc(C(=O)Nc2ccc(Cc3cccc(Cl)c3)cn2)nn1 (stereo not shown)
b. Cn1nc(C(=O)Nc2ccc(COc3cc(Cl)cc(C#N)c3)cn2)ccc1=O
c. O=C(Nc1ccc(Cc2cccc(Cl)c2)cn1)c1ccc(=O)n(C2COC2)c1
d. O=C(Nc1ccc(Cc2cc(F)cc(F)c2)cn1)c1cncc(CO)c1
e. N#Cc1cnc(C(=O)Nc2ccc(Cc3ccc(F)c(F)c3)cn2)cn1
[Q] rank_up(items): orders items by reported pIC50 in ascending numerical order. Arrange the labels as the request states and list them.
[A] c, b, a, e, d
(c: 5.49, b: 5.70, a: 7.22, e: 7.74, d: 8.00)
